- Assay Text: NCI Yeast Anticancer Drug Screen. Data for the sgs1 mgt1 strain (AID 161);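 also: 0% = growth of cultures given vehicle only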
- Reported Conditions: S. cerevisiae sgs1 mgt1 strain, at 50.0 µM, active compounds read high
- Experimental: Growth inhibition of yeast strains with defined genetic alterations is measured as a screen for potential anti-cancer activity. Selected strains with alterations in DNA damage repair or cell cycle control were exposed to compounds and growth inhibition was measured relative to vehicle treated controls. The strain used in this assay is sgs1 mgt1
Compounds without any hit were thinned out: in the full panel of roughly 79,000, 15% have a hit.
Quick rule for you: growth inhibition at -10% or higher means class 1, lower means class 0.

>  <Molecule>
CCCCCCCCCCCCCCCCCC(=O)OCC(COC1OC(CS(=O)(=O)O)C(O)C(O)C1O)OC(=O)CCCCCCCCCCCCCCCCC (stereo unspecified)

>  <Discrete Label>
class 1

$$$$
>  <Molecule>
COc1ccc(C(=O)c2ccccc2)c(O)c1

>  <Discrete Label>
class 0

$$$$
>  <Molecule>
Cc1ccc(SSCC(O)C(O)CSSc2ccc(C)cc2)cc1 (stereo unspecified)

>  <Discrete Label>
class 0

$$$$
>  <Molecule>
Cc1c(-c2ccccc2)c(=O)oc2ccc(Cl)cc12

>  <Discrete Label>
class 1

$$$$
>  <Molecule>
COc1c2cccc(Cl)c2cc2c(Cl)cccc12

>  <Discrete Label>
class 1

$$$$

###

The following compounds are listed with their measured growth inhibition values.
- Assay Text: NCI Yeast Anticancer Drug Screen. Data for the bub3 strain (AID 167)
- Reported Conditions: S. cerevisiae bub3 mutant strain, at 50.0 µM, active compounds read high
Compounds without any hit were thinned out: in the full panel of roughly 79,000, 15% have a hit.

>  <Compound>
Brc1cc(Br)cc(-c2nnc(-c3ccc4ccccc4c3)o2)c1

>  <Value Units>
%

>  <growth inhibition>
3

$$$$
>  <Compound>
CCC1(CC)C(=O)N(C(=O)c2ccc(C)cc2)N(C(=O)c2ccc(C)cc2)C1=O

>  <Value Units>
%

>  <growth inhibition>
2.8

$$$$
>  <Compound>
Cc1ccc(S(=O)(=O)Nc2ccccc2-c2nc3c(Cl)ccc(Cl)c3c(=O)o2)cc1

>  <Value Units>
%

>  <growth inhibition>
-5.45

$$$$
>  <Compound>
O=C(Nc1cccc(C(F)(F)F)c1)C(=O)C(C(=O)c1ccc(Cl)c(Cl)c1)C1OC(=O)c2ccccc21 (stereo not given)

>  <Value Units>
%

>  <growth inhibition>
45.4

$$$$
>  <Compound>
Cc1cc(Br)cc(C)c1NC(=O)C(=O)C1C(=O)C(CC2C(=O)c3ccccc3C2=O)C(=O)CC1(C)C (stereo not given)

>  <Value Units>
%

>  <growth inhibition>
4.35

$$$$

###

The following compounds are listed with their measured growth inhibition values.
- Assay Text: NCI Yeast Anticancer Drug Screen. Data for the rad50 strain (AID 155);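 also: 0% = growth of vehicle-only cultures of the same strain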
- Reported Conditions: S. cerevisiae rad50 strain growth inhibition; at 50.0 µM; active compounds read high
Compounds without any hit were thinned out: in the full panel of roughly 79,000, 15% have a hit.
Metric: growth inhibition (%)

>  <Compound>
CC(C)(C)C(=O)C(C(=O)c1ccccc1)C(=O)C(C)(C)C

>  <Metric>
growth inhibition

>  <Observed Measurement>
-4.65

$$$$
>  <Compound>
OC1(c2cccc(Cl)c2)C2=NCCCN2c2ccccc21 (stereo unspecified)

>  <Metric>
growth inhibition

>  <Observed Measurement>
5.05

$$$$
>  <Compound>
CC1CN=C(N(C(=O)Nc2ccc(Cl)c(Cl)c2)c2ccccc2)S1 (stereo unspecified)

>  <Metric>
growth inhibition

>  <Observed Measurement>
-47.3

$$$$
>  <Compound>
CC(=O)N(C)CC(c1c(C)[nH]c2ccccc12)c1c(C)[nH]c2ccccc12

>  <Metric>
growth inhibition

>  <Observed Measurement>
15.3

$$$$
>  <Compound>
COCn1c2ccc(OC(C)=O)cc2c2c(=O)oc(N(C)C)nc21

>  <Metric>
growth inhibition

>  <Observed Measurement>
-14.8

$$$$
>  <Compound>
COc1ccc(NC(=O)C(=O)c2c(O)c3ccc(O)cc3oc2=O)c([N+](=O)[O-])c1

>  <Metric>
growth inhibition

>  <Observed Measurement>
14.4

$$$$
>  <Compound>
Nc1nc2[nH]c(=O)cnc2c(=O)[nH]1

>  <Metric>
growth inhibition

>  <Observed Measurement>
-17.8

$$$$
>  <Compound>
O=C(O)c1ccccc1C(=O)c1ccccn1

>  <Metric>
growth inhibition

>  <Observed Measurement>
-4

$$$$
>  <Compound>
CCC(C)(O)c1cn(-c2cccc(S(=O)(=O)O)c2)nn1 (stereo unspecified)

>  <Metric>
growth inhibition

>  <Observed Measurement>
-9.3

$$$$
>  <Compound>
CCOC(=O)c1cc2c(nc1NCc1ccccc1)C(=O)CCCC2

>  <Metric>
growth inhibition

>  <Observed Measurement>
7.95

$$$$
>  <Compound>
O=S(=O)(O)c1cccc2c(O)cccc12

>  <Metric>
growth inhibition

>  <Observed Measurement>
-7.9

$$$$

###

- Assay Text: NCI Yeast Anticancer Drug Screen. Data for the bub3 strain (AID 167)
- Reported Conditions: S. cerevisiae bub3 mutant strain, at 50.0 µM, active compounds read high
- Method: Growth inhibition of yeast strains with defined genetic alterations is measured as a screen for potential anti-cancer activity. Selected strains with alterations in DNA damage repair or cell cycle control were exposed to compounds and growth inhibition was measured relative to vehicle treated controls. The strain used in this assay is bub3
The panel holds about 79,000 compounds, 15% with a hit somewhere; the sample as a whole holds those more often.

>  <Compound>
COc1ccc(N=Cc2ccc(N(CCC#N)S(=O)(=O)c3ccccc3)cc2)cc1

>  <Value Units>
%

>  <growth inhibition>
9.25

$$$$
>  <Compound>
O=C1c2ccccc2C(=O)c2cc(N=Nc3c(O)ccc4ccccc34)ccc21

>  <Value Units>
%

>  <growth inhibition>
2.7

$$$$
>  <Compound>
CCOC(OCC)C(N)C(=O)O (stereo unspecified)

>  <Value Units>
%

>  <growth inhibition>
10.8

$$$$
>  <Compound>
CCCCCCCCCCCCCCCCCC#N

>  <Value Units>
%

>  <growth inhibition>
5.5

$$$$
>  <Compound>
CCN(CC)CCCC(C)Nc1cc(C)c2nc(C)cc(C)c2c1C (stereo unspecified)

>  <Value Units>
%

>  <growth inhibition>
3.4

$$$$
>  <Compound>
CN(C)CCNC(=O)c1cccc2nc3c(C(=O)NCCN(C)C)cccc3nc12

>  <Value Units>
%

>  <growth inhibition>
-34.1

$$$$

###

- Assay Text: NCI Yeast Anticancer Drug Screen. Data for the rad50 strain (AID 155);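 also: 0% = growth of vehicle-only cultures of the same strain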
- Reported Conditions: S. cerevisiae rad50 strain growth inhibition; at 50.0 µM
Compounds without any hit were thinned out: in the full panel of roughly 79,000, 15% have a hit. Active and inactive are the calls of the source. Rule as the data show it: active = growth inhibition above about 70%; inactive = the rest.
Outcomes: active, inactive

>  <Compound>
CCOC(=O)c1[nH]c(Cc2[nH]c(C(=O)OCC)c(CC)c2C)c(C)c1CC

>  <Discrete Label>
inactive

$$$$
>  <Compound>
COc1ccc2nc3cc([N+](=O)[O-])ccc3c(Nc3ccc(S(=O)(=O)NC(C)=O)cc3)c2c1

>  <Discrete Label>
active

$$$$
>  <Compound>
COc1ccc(NC(=O)CC(=O)N2N=C(N(c3ccccc3)c3ccccc3)CC2c2ccccc2)cc1 (configuration not stated)

>  <Discrete Label>
inactive

$$$$
>  <Compound>
CCCCC(CC)C1OCCS1 (configuration not stated)

>  <Discrete Label>
inactive

$$$$
>  <Compound>
COc1cc(C2SCC(=O)N2c2ccc(-n3c(-c4ccccc4)nc4ccccc4c3=O)cc2)cc(OC)c1OC (configuration not stated)

>  <Discrete Label>
inactive

$$$$
>  <Compound>
O=C(Nc1cccc(C(F)(F)F)c1)C(=O)C(C(=O)c1ccc(Cl)c(Cl)c1)C1OC(=O)c2ccccc21 (configuration not stated)

>  <Discrete Label>
inactive

$$$$
>  <Compound>
CCSc1nc(Cl)nc2c1cnn2C

>  <Discrete Label>
inactive

$$$$
>  <Compound>
c1ccc(CC2(Cc3ccccc3)SCCS2)cc1

>  <Discrete Label>
inactive

$$$$
>  <Compound>
Cc1ccc(S(=O)(=O)/C(=C/c2ccccc2)CC(=O)c2ccccc2)cc1

>  <Discrete Label>
inactive

$$$$
>  <Compound>
O=C(c1ccc(Cl)cc1)N(C(=S)N1CCN(c2ccccn2)CC1)C1CCCCC1

>  <Discrete Label>
inactive

$$$$
>  <Compound>
COC(=O)C(C(=O)C(=O)Nc1nc2ccc(OC)cc2s1)c1cnc2ccccc2n1 (configuration not stated)

>  <Discrete Label>
inactive

$$$$
>  <Compound>
CCCCCOc1ccc(C(=O)OC)cc1

>  <Discrete Label>
inactive

$$$$
>  <Compound>
Cc1ccc(NC(=S)NC(=O)c2ccccc2)cc1

>  <Discrete Label>
inactive

$$$$
>  <Compound>
O=C(c1nc2ccc(Cl)cc2[nH]c1=O)C(O)c1ccccc1 (configuration not stated)

>  <Discrete Label>
inactive

$$$$
>  <Compound>
S=C1CC(c2ccc(Cl)cc2)Sc2ccccc2N1 (configuration not stated)

>  <Discrete Label>
inactive

$$$$
>  <Compound>
O=S(=O)(O)c1cc(N=Nc2cc(S(=O)(=O)O)c3cccnc3c2O)ccc1/C=C/c1ccc(N=Nc2cc(S(=O)(=O)O)c3cccnc3c2O)cc1S(=O)(=O)O.[Cu+2].[Na+]

>  <Discrete Label>
inactive

$$$$
>  <Compound>
CNC(=O)C1CCC(=O)N1CN(C(C)=O)c1ccccc1 (configuration not stated)

>  <Discrete Label>
inactive

$$$$
>  <Compound>
O=C(NC(=O)c1c(F)cccc1F)Nc1cccc(C(F)(F)F)c1

>  <Discrete Label>
inactive

$$$$
>  <Compound>
N/C(=N\OC(=O)Nc1cccc(Cl)c1)C(Cl)(Cl)Cl

>  <Discrete Label>
active

$$$$
>  <Compound>
COc1c2cccc(Cl)c2cc2c(Cl)cccc12

>  <Discrete Label>
inactive

$$$$
>  <Compound>
Cc1ncc(CO)c(Cc2ccc(N(C)C)cc2)c1O

>  <Discrete Label>
inactive

$$$$
>  <Compound>
CCCCNC(=O)C(c1ccccc1)c1ccccc1

>  <Discrete Label>
inactive

$$$$

// provenance: PubChem BioAssay (NCI)
